Cited source: PubChem BioAssay (NCI)

test system: UO-31 renal; assay: NCI-60 one-dose screen, 48 h; conditions: 10 µM unless noted
The panel holds about 83,000 compounds, 20% with a hit somewhere; the sample as a whole holds those more often. Calls of active or inactive are those of the source. The calls were made as follows: active = growth percent below 10; inactive = the rest.
Outcomes: y = active, n = inactive

molecule: Oc1ccc(Cl)cc1C(c1cc(Cl)ccc1O)C(Cl)(Cl)Cl
classLabel: n
--
molecule: CCCCCCCCCCCC(=O)OC(C)C(=O)NCCCC (stereo unspecified)
classLabel: n
--
molecule: Oc1c(C(Nc2ccccc2)c2ccccc2)ccc2cccnc12 (stereo unspecified)
classLabel: n
--
molecule: Fc1ccc(NCCS)cc1
classLabel: n
--
molecule: COC(=O)c1nc(=S)[nH]c(C(=O)OC)c1C(=O)c1ccc(Cl)c(Cl)c1
classLabel: n
--
molecule: O=[N+]([O-])/C(=C/c1ccccc1)c1ccccc1
classLabel: n
--
molecule: Clc1ccccc1C(c1ccccc1)(c1ccccc1)n1ccnc1
classLabel: n
--
molecule: Nc1nc(N)c2cc(Sc3cccc(C(F)(F)F)c3)ccc2n1
classLabel: n
--
molecule: Cc1cc(C)c(C#N)c(Sc2nc(C)c([N+](=O)[O-])c(C)c2C#N)n1
classLabel: n
--
molecule: OC(c1cc2ccc(C(F)(F)F)cc2c2cc(C(F)(F)F)ccc12)C1CCCCN1 (stereo unspecified)
classLabel: y
--
molecule: O=C1C=CC(=O)c2c(O)c(CO)c(CO)c(O)c21
classLabel: n
